Source: patent US20260242478A1

assayed system: T1, PSMA Fab (006 PSMA Fab)
T1 construct: also called Anti-PSMA Fab
assay text: phage ELISA on captured PSMA Fab pre-incubated with the competitor PSMA antigen, anti-M13-HRP detection
property measured: phage binding ELISA signal, Anti-PSMA Fab in the presence of PSMA
Please give the numeric answer without any surrounding text.

phage binding ELISA signal, Anti-PSMA Fab in the presence of PSMA for STTLCRPAWMCTGM [Phage-3916] ?
0.0655

Next:
Any idea what its phage binding ELISA signal, Anti-PSMA Fab in the presence of PSMA is? The binder is MSPMCSPSWMCMGF [Phage-3919]
0.0911

Bench note: what phage binding ELISA signal, Anti-PSMA Fab in the presence of PSMA did ESRACVPNWMCHGL [Phage-3911] show?
0.06

Sample IEAQCRPVWMCHGF [Phage-3923] — what was its phage binding ELISA signal, Anti-PSMA Fab in the presence of PSMA?
0.0779

Which phage binding ELISA signal, Anti-PSMA Fab in the presence of PSMA value belongs to YQMLCVPEWMCSGL [Phage-3915] ?
0.0874

What value of phage binding ELISA signal, Anti-PSMA Fab in the presence of PSMA has been recorded for this entry: FGVKCEPRWMCNGF [Phage-3914]
0.0693
